Hi there, I'd appreciate the recorded Emax at 100 µM for every entry that follows.
# TESTED_ON: human 5-HT2C receptor (Homo sapiens)
# Sequence (P28335 33-458): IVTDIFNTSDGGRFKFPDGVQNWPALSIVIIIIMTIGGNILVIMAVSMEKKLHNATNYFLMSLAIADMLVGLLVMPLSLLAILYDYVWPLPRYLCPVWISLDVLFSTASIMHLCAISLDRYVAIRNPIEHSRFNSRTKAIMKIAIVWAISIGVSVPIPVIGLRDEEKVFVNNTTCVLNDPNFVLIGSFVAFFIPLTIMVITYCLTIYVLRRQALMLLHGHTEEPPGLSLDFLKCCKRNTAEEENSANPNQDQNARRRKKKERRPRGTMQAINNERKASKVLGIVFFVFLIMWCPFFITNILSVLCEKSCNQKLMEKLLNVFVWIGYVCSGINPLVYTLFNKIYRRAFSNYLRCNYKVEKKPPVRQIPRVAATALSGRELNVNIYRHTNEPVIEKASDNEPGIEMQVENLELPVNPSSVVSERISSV
# EXPERIMENT_NOTES: Functional Ca2+ mobilization fluorescence assay in HeLa-5-HT2C cells
# Type: cell-based
# CONDITION_NOTES: read-out: % Emax 5-HT2C
Answer in %, number only, no unit symbol.

Asked: // query Emax at 100 µM value for entry CC(N)Cc1ccc2oc3ccccc3c2c1.Cl (centres unmarked) [Compound 2]
Given back: 112

Asked: Try this compound next: Cl.NCCc1ccc2oc3ccccc3c2c1 [Compound 1]
Given back: 49.1

Asked: Next up: COc1cc2c(cc1CCN)oc1ccccc12.Cl [Compound 3]
Given back: 54

Asked: And for Cl.NCCc1cccc2c1oc1ccccc12 [Compound 4] ?
Given back: 98

Asked: Please do the same for COc1ccc2oc3ccccc3c2c1CCN.Cl [Compound 5] as well.
Given back: 106
